Test: qHTS assay to identify small molecule antagonists of the estrogen related receptor (ERR) signaling pathway from Tox21 library - cell viability counter screen (AID 1224834); further: nearly all actives have a fitted effect of over 30% in size
Settings: ERR reporter cells viability, CellTiter-Fluor, 17.5 h; series mostly up to 92.4 µM
Inconclusive results are not listed. The source made the active and inactive calls. The call rests on the fitted dose curve; in most records, active means well fitted cell-killing curve with a large enough effect in the repeat runs; inconclusive means weak or mixed curves; inactive means flat fitted curve, though single readings scatter.
Write down the outcome that applies. Available outcomes: active, inactive

Entry CCN(CC)C(C)=O : call = ?
inactive

// param item: CC1(C)CCC(C)(C)c2cc(NC(=O)c3ccc(C(=O)O)cc3)ccc21 ; yields the recorded call
inactive

Look up the recorded call for CC[C@H](C)[C@H](N)C(=O)O in this test.
inactive

Kindly provide the recorded test outcome for the following compound: NC1CCN(c2nc3c(cc2F)c(=O)c(C(=O)O)cn3-c2ccc(F)cc2F)C1 (centres undefined)
inactive

For C1=Cc2ccccc2C1 , what call appears in the results of this test?
inactive

Recorded test outcome, item CC1=CC(=O)/C(=C(/C)O)C(=O)O1
inactive

I'd appreciate the recorded outcome for C=Cc1c(C)c2cc3[nH]c(cc4nc(cc5nc(cc1[nH]2)C(C)=C5CCC(=O)O)C(CCC(=O)O)=C4C)c(C)c3C=C from this test.
active

How did this test come out for CCCCCC/C=C/C=O ?
inactive

Please share the test call associated with O=c1c2ccccc2nnn1CCl .
inactive

Could you check what this test reported for CC1(C)[C@H]2CC[C@]1(C)[C@H](O)C2 ?
inactive

Record request — test call for CCN(CC)CCOC(=O)C1(c2ccccc2)CCCC1
inactive

Look up the recorded call for O=C1CCCCCO1 in this test.
inactive

Give the logged outcome of this assay for the following compound: Cn1c(=O)c2c(ncn2CC(O)CO)n(C)c1=O (centres undefined)
inactive

Please indicate how the test categorized O=c1[nH]cnc2ccccc12 .
inactive

For Cc1ccc(C(=O)C(C)CN2CCCCC2)cc1 (centres undefined) , what call appears in the results of this test?
inactive

Which result was noted for this compound in the test: Cc1occc1S
inactive

Would you mind telling me which call this test gave O=C(Nc1ccccc1)OCC(CN1CCCCC1)OC(=O)Nc1ccccc1 (centres undefined) ?
inactive

Hi team, can someone confirm the assay call for Cc1ccc2c(ccc3ccccc32)c1 ?
inactive

Query: recorded result category for Cc1ccccc1N=Nc1ccc(N=Nc2c(O)ccc3ccccc23)c(C)c1 in this test
inactive

Identify the outcome logged in this assay for the compound shown: CCCCCCCC/C=C\CCCCCCCC(N)=O
inactive

How did this test come out for c1ccc(-c2nc[nH]c2-c2ccccc2)cc1 ?
inactive

Would you mind telling me which call this test gave CC(C)(C)C1CCCCC1O (centres undefined) ?
inactive

Fill in: this test's call for CC/C(=C\C(=N/O)C(N)=O)C(C)[N+](=O)[O-] (centres undefined) is ___
inactive

# lookup: test call for Cc1cccc(C(C)(C)C)c1O
inactive

Recorded call for O=S1(=O)c2cccc3cccc(c23)N1CCCN1CCN(c2ccc(F)cc2)CC1 ?
inactive

Kindly provide the recorded test outcome for the following compound: CC(CN)CCCN (centres undefined)
inactive

Record request — test call for Oc1ccc(C(O)CNCCCCCCNCC(O)c2ccc(O)c(O)c2)cc1O (centres undefined)
inactive

For CC(=O)OC/C=C/c1ccccc1 , what call appears in the results of this test?
inactive

Call for entry CC(=O)OCCc1ccccc1 :
inactive

Short answer needed: outcome of this test for CC[C@@H]1C[C@H](N(Cc2cc(C(F)(F)F)cc(C(F)(F)F)c2)C(C)=O)c2cc(C(F)(F)F)ccc2N1C(=O)OC(C)C ?
inactive

What did the test return for CC(=O)O[C@@H]1C(=O)O[C@@H]2[C@H]1OC(=O)[C@@H]2OC(C)=O ?
inactive

For this compound, state the assay outcome: N#Cc1cc2ccccc2c2ccccc12
inactive

Answer briefly: the call reported for C=CC(=O)OCC(C)OCC(C)OCC(C)OC(=O)C=C (centres undefined) in this assay.
active

Check the results log: what was the call for CC(=O)/C(C)=C/C1C(C)=CCCC1(C)C (centres undefined) ?
inactive

====

Experiment: qHTS RealTime-Glo MT Cell Viability Assay in HEK293 cells - 40 hour (AID 1224874); further: on the % scale 0 is the no-effect control and ±100 the full control effect; nearly all actives have a fitted effect of over 50% in size
Settings: RealTime-Glo luminescence; hits give low values
Inconclusive results are not listed.
Field: max response. Provide a value for each of the compounds that follow.
# number only, unit % dropped from output

# get_value(readout='max response', item= N#Cc1c(F)cccc1F )
-15.1

Given the entry Cc1cc(NC(=O)C(=O)O)cc(C)c1Oc1ccc(O)c2c1CCC2 , report its measured max response.
-8.77

Which max response value belongs to C=C(C)C(=O)OCCN(C)C ?
0.256

Please report the recorded max response for CNCC[C@@H](Oc1ccccc1C)c1ccccc1 .
-5.29

For CC(C)(C)c1cc(CCC(=O)OCC(COC(=O)CCc2cc(C(C)(C)C)c(O)c(C(C)(C)C)c2)(COC(=O)CCc2cc(C(C)(C)C)c(O)c(C(C)(C)C)c2)COC(=O)CCc2cc(C(C)(C)C)c(O)c(C(C)(C)C)c2)cc(C(C)(C)C)c1O , what is its reported max response?
0.256

What does the record list as max response for O=S1(=O)N=C(O)c2ccccc21 ?
2.61

Field request: max response | item: OCCC1CCCCN1 (stereo unspecified)
-19.6

Give the measured max response of CCCCCc1ccc(N)cc1 .
-15.3

Give the measured max response of CCOc1nc2cccc(C(=O)O)c2n1Cc1ccc(-c2ccccc2-c2nn[nH]n2)cc1 .
9.75

// lookup max response for CC(C)c1cccc(C(C)C)c1NC(=O)NS(=O)(=O)c1cc(C(C)(C)O)co1
6.33

Which max response value is on record for CC(C)NCC(O)COc1ccc(CC(N)=O)cc1 (stereo unspecified) ?
-1.4

====

Experiment: qHTS assay to test for compound auto fluorescence at 590 nm (red) in HepG2 cells (AID 720674); further: on the % scale 0 is the no-effect control and ±100 the full control effect
Details: HepG2 autofluorescence, red 540/590 nm, 1 h; series mostly up to 91.3 µM
From the text: U.S. Tox21 Program National Center for Advancing Translational Sciences [NCATS] NIH Chemical Genomics Center [NCGC] U.S. Environmental Protection Agency [EPA] National Institutes of Environmental Health Sciences [NIEHS] National Toxicology Program [NTP] U.S. Food and Drug Administration [FDA] Tox21 Assay Overview: Compound auto fluorescence often interferes with screening of the compound library against various biological targets and signaling pathways. […] This assay includes the red fluorescence data. […]
Activity calls are given as the source filed them. The call rests on the fitted dose curve; in most records, active means well fitted curve in the direction sought with a large enough effect in the repeat runs; inconclusive means weak or mixed curves; inactive means flat fitted curve, though single readings scatter.
assay endpoint: fluorescence, relative to Rose Bengal

Worked examples follow.
ClC(Cl)(Cl)c1ccc(C(Cl)(Cl)Cl)cc1
inactive
CN1CCN(C2=Nc3ccccc3Sc3ccc(Cl)cc32)CC1
inactive
CCCCc1cc2ccccc2c(OCCN(C)C)n1
0.0286% [at 18.6 µM] (inactive)
CC(=O)O[C@@H]1C(=O)O[C@@H]2[C@H]1OC(=O)[C@@H]2OC(C)=O
inactive
CCCCCCCCCCCCCCCCCBr
-0.244% [at 18.6 µM] (inactive)

Quick one: fluorescence, relative to Rose Bengal of O=C(O)/C=C/c1cnc[nH]1 ?
inactive

What measured fluorescence, relative to Rose Bengal goes with CCN(CC)C(C)CN1c2ccccc2Sc2ccccc21 (configuration not stated) ?
0.373% [at 18.6 µM] (inactive)

====

Molecular target: Cytochrome P450 1A2 (Homo sapiens) (UniProt P05177)
Sequence (P05177 whole entry, looked up): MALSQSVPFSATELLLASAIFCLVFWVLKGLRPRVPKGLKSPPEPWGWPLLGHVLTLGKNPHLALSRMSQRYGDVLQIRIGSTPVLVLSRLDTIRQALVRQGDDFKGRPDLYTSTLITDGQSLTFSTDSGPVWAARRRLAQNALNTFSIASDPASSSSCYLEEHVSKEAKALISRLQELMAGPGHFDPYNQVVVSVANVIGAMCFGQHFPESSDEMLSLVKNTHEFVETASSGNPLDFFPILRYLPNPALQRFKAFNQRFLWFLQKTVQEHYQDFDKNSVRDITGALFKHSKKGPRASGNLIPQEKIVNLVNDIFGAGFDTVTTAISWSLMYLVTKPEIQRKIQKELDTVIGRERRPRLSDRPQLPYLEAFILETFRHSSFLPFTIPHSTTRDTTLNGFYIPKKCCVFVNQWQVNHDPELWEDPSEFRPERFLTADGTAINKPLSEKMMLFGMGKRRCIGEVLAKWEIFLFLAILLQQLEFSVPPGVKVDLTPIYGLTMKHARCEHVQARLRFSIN
Assay: Cytochrome P450 Family 1 Subfamily A Member 2 (CYP1A2) small molecule antagonists: luciferase reporter qHTS assay (AID 1671199); further: nearly all actives have a fitted effect of over 50% in size
Conditions: P450-Glo CYP1A2 enzyme, luciferin luminescence, 1 h; series mostly up to 115 µM
Excerpt: National Center for Advancing Translational Sciences [NCATS] U.S. Environmental Protection Agency [EPA] National Institutes of Environmental Health Sciences [NIEHS] National Toxicology Program [NTP] U.S. Food and Drug Administration [FDA] Cytochrome P450 (CYP) enzymes are membrane-bound hemeproteins that play a key role in metabolism of drugs and xenobiotics. […] The luciferin products formed are detected with a luciferin detection reagent, and the amount of light produced is proportional to CYP activity. […]
Results filed as inconclusive are left out. Calls of active or inactive are those of the source. Calls follow the shape of the dose curve; as a rule, active = well fitted inhibition curve with a large enough effect in the repeat runs; inconclusive = weak or mixed curves; inactive = no such curve, though single readings can be large or run the other way.
Entry note: the call must match one of active, inactive

Kindly provide the recorded test outcome for the following compound: CC[C@H](C)[C@@H](C(=O)O)n1sc2ccccc2c1=O
active

Can you look up the reported call for COC(=O)C(C)=O for me?
active

I would be grateful if you could indicate the recorded call for CCCCCCc1ccc(N)cc1 .
active

Entry OCCC1CCCCN1 (stereo not drawn) : call = ?
inactive

How was CC(=O)SCc1ccco1 classified in this test?
inactive

Please share the test call associated with O=C1Nc2cc(Cl)ccc2Oc2ccccc21 .
active

Record request — test call for CC[C@H](C)[C@H](N)C(=O)O
inactive

What is the recorded call for this compound in the test? O=c1c2ccccc2nnn1CCl
inactive

====

Assay: A CellTox Green Cytotoxicity Assay to monitor cytotoxicity in HEK293 cells - 40 hour (AID 1224871); further: nearly all actives have a fitted effect of over 45% in size
Conditions: CellTox Green fluorescence; series mostly up to 76.8 µM
Inconclusive results are not listed. Calls of active or inactive are those of the source. The call rests on the fitted dose curve; in most records, active means well fitted activation curve with a large enough effect in the repeat runs; inconclusive means weak or mixed curves; inactive means flat fitted curve, though single readings scatter.
API: response.call in Y (active), N (inactive)

Hi team, can someone confirm the assay call for Cc1cc(CC(=O)O)c(C)n1-c1ccc(Cl)cc1 ?
N

Please let me know the test result on file for NC1CCN(c2nc3c(cc2F)c(=O)c(C(=O)O)cn3-c2ccc(F)cc2F)C1 (stereo not given) .
N

So what was the verdict on Cc1cc(C)c(S(=O)(=O)O)cc1N=Nc1cc(S(=O)(=O)O)c2ccccc2c1O in this test?
N

Recorded test outcome, item CC1(C)[C@H]2CC[C@]1(C)[C@H](O)C2
N

Short answer needed: outcome of this test for C=CC(=O)OCCOC(=O)CCC(=O)O ?
N

Record request — test call for Cc1cc(O)ccc1N
Y

What did the test return for CCCCCCc1ccc(N)cc1 ?
N

What did this assay record as the result for C=CC(=O)OCC(C)OCC(C)OCC(C)OC(=O)C=C (stereo not given) ?
Y

Outcome logged for CC(C)(C)c1cc(CCC(=O)OCC(COC(=O)CCc2cc(C(C)(C)C)c(O)c(C(C)(C)C)c2)(COC(=O)CCc2cc(C(C)(C)C)c(O)c(C(C)(C)C)c2)COC(=O)CCc2cc(C(C)(C)C)c(O)c(C(C)(C)C)c2)cc(C(C)(C)C)c1O in this assay:
N

Tell me the assay call for C=CCCCCCC please.
N

Please let me know the test result on file for C1CCC2OC2C1 (stereo not given) .
N

Can you look up the reported call for O=S1(=O)c2cccc3cccc(c23)N1CCCN1CCN(c2ccc(F)cc2)CC1 for me?
N

Given CCCCCOC(=O)COc1cc(N2C(=O)C3=C(CCCC3)C2=O)c(F)cc1Cl , state the outcome it received in this test.
N

Outcome logged for CCCCc1cc2ccccc2c(OCCN(C)C)n1 in this assay:
Y

Lab log entry: CCOc1nc2cccc(C(=O)O)c2n1Cc1ccc(-c2ccccc2-c2nn[nH]n2)cc1 — outcome as called in the assay?
N

Write down the call the test reported for this molecule. Item: O=c1c2ccccc2nnn1CCl
N

Would you mind telling me which call this test gave CCCCC(CC)(CO)CO ?
N

Which result was noted for this molecule in the test: Nc1ccc(C(=O)N2CC3CC(CN(Cc4ccccc4)C3)C2)cc1
N

Tell me the recorded outcome of this test for Cc1ccc(C(=O)C(C)CN2CCCCC2)cc1 (stereo not given) .
N

Lab log entry: O=C1Nc2cc(Cl)ccc2Oc2ccccc21 — outcome as called in the assay?
N

Could you kindly confirm the outcome this assay logged for Cc1ccc2c(ccc3ccccc32)c1 ?
N

Hi, do you know how O=[N+]([O-])c1cc[n+]([O-])cc1 came out in this test?
N

Short answer needed: outcome of this test for CC(C)(C)c1cc(O)c(C(C)(C)C)cc1O ?
N

Please let me know the test result on file for c1ccc(-c2nc[nH]c2-c2ccccc2)cc1 .
N

Status in this test for O=C(c1ccc(O)cc1)c1ccc(O)cc1 ?
N
